Molecular target: Human recombinant MMP-2 (Homo sapiens)
Construct: made in house; host or cells: MMP-2-transfected p2AHT2 cells
Assay: In vitro MMP inhibition, IC50 determination (fluorogenic substrate I)
Type: biochemical
Conditions: value outside parentheses
pIC50: −log10 of the molar value.
propertyLabel: pIC50

Task: Any idea what its pIC50 is? The molecule is "CN(C)c1cccc(CCCOc2ccc(S(=O)(=O)C3(C(=O)NO)CCN(C4CC4)CC3)cc2)c1"
Output: 7.46

I = O=C(NO)C1(S(=O)(=O)c2ccc(OCCOCC3CC3)cc2)CCOCC1
II = O=C(NO)C1(S(=O)(=O)c2ccc(OCCCc3cccc(C4CCCCN4)c3)cc2)CCN(C2CC2)CC1 (stereo not shown)
Task: Hey, which is lower on measured pIC50, I or II ? Mark your answer with the label of the selected entry.
Output: II
(II: 6.24, I: 7.62)

a = O=C(NO)C1(S(=O)(=O)c2ccc(OCCCSc3nc4ccccc4s3)cc2)CCN(CC2CC2)CC1
b = COc1cc(CCCOc2ccc(S(=O)(=O)C3(C(=O)NO)CCOCC3)cc2)cc(OC)c1
Task: Return label of the item with the larger pIC50. Candidates: a , b . Mark your answer with the label of the selected entry.
Output: a
(a: 8.74, b: 7.07)

P = O=C(NO)C1(S(=O)(=O)c2ccc(OCCCc3cccc(-c4ccc5c(c4)OCCO5)c3)cc2)CCOCC1
Q = O=C(NO)C1(S(=O)(=O)c2ccc(OCCCc3cccc(-n4ccnc4)c3)cc2)CCOCC1
Task: Return label of the item with the larger pIC50. Candidates: P , Q . Mark your answer with the label of the selected entry.
Output: Q
(Q: 7.53, P: 5.68)

A = O=C(NO)C1(S(=O)(=O)c2ccc(OCCCc3cccc(-c4ccc([N+](=O)[O-])cc4)c3)cc2)CCOCC1
B = O=C(NO)C1(S(=O)(=O)c2ccc(OCCOc3ccccc3)cc2)CCOCC1
Task: Hey, which is lower on measured pIC50, A or B ? Mark your answer with the label of the selected entry.
Output: A
(A: 6.85, B: 7.56)

1 = O=C(NO)C1(S(=O)(=O)c2ccc(OCCCc3cc(-c4ccc(F)c(F)c4)cs3)cc2)CCOCC1
2 = O=C(NO)C1(S(=O)(=O)c2ccc(OCCCc3cc(-c4ccc(OC(F)(F)F)cc4)cs3)cc2)CCOCC1
Task: Hey, which is lower on measured pIC50, 1 or 2 ? Mark your answer with the label of the selected entry.
Output: 2

A = CN(C(=O)CCCOc1ccc(S(=O)(=O)C2(C(=O)NO)CCOCC2)cc1)c1ccccc1
B = O=C(NO)C1(S(=O)(=O)c2ccc(OCCCc3cccc(-c4cccs4)c3)cc2)CCOCC1
Task: Return label of the item with the larger pIC50. Candidates: A , B . Mark your answer with the label of the selected entry.
Output: A
(A: 6.80, B: 6.32)

I = O=C(Cc1nn[nH]n1)NCCOc1ccc(S(=O)(=O)C2(C(=O)NO)CCOCC2)cc1
II = O=C(NO)C1(S(=O)(=O)c2ccc(OCCOCc3ccccn3)cc2)CCOCC1
Task: Return label of the item with the larger pIC50. Candidates: I , II . Mark your answer with the label of the selected entry.
Output: II

====

Target: Human recombinant MMP-9 (Homo sapiens)
Construct: made in house; host or cells: MMP-9-transfected HT1080 cells (spent media)
Sequence (P14780 107-707 limits assumed): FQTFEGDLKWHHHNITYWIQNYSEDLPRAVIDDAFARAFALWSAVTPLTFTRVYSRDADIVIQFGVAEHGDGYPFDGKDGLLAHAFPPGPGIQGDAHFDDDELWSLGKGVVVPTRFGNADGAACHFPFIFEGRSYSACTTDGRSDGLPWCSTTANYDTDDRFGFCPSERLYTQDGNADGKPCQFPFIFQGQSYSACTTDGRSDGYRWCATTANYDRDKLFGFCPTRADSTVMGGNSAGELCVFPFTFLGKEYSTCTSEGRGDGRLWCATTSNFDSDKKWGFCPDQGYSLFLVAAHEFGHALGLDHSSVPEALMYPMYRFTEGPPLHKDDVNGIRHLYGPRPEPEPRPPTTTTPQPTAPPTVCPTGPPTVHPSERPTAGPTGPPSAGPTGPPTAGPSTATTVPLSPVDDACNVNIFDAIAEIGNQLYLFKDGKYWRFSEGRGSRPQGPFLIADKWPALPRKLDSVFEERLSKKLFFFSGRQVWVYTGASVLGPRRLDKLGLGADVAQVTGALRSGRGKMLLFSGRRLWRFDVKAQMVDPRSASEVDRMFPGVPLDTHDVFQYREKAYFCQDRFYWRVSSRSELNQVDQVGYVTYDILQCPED
Assay: In vitro MMP inhibition, IC50 determination (fluorogenic substrate I)
Type: biochemical
Conditions: value outside parenthesis
propertyLabel: IC50 (µM)

Task: Any idea what its IC50 is? The compound is Cc1cccc(-c2noc(CCCOc3ccc(S(=O)(=O)C4(C(=O)NO)CCOCC4)cc3)n2)c1 [Example 238]
Output: 1.19

Task: Any idea what its IC50 is? The compound is O=C(NO)C1(S(=O)(=O)c2ccc(OCCCc3nc(-c4cccc(OC(F)(F)F)c4)no3)cc2)CCOCC1 [Example 266]
Output: 0.203

Task: Any idea what its IC50 is? The compound is O=C(NO)C1(S(=O)(=O)c2ccc(OCCCc3nc(-c4cccc(Cl)c4Cl)no3)cc2)CCOCC1 [Example 213]
Output: 2.2

I = O=C(NO)C1(S(=O)(=O)c2ccc(OCCCc3nc(-c4ccc([N+](=O)[O-])cc4)no3)cc2)CCOCC1 [Example 212]
II = O=C(NO)C1(S(=O)(=O)c2ccc(OCCCc3nc(-c4ccc(Cl)cc4)no3)cc2)CCOCC1 [Example 243]
III = O=C(NO)C1(S(=O)(=O)c2ccc(OCCc3cccc(-c4cccnc4)c3)cc2)CCOCC1 [Example 125]
Task: Sort by IC50, descending. A ranking is expressed here by listing the labels in the requested order.
Output: II, III, I

====

Biological target: Human recombinant MMP-13 (Homo sapiens)
Construct: made in house; host or cells: baculovirus / insect cells
Assay: In vitro MMP inhibition, IC50 determination (fluorogenic substrate I)
Format: biochemical
Details: value outside parentheses (Ki in parenthesis)
Procedure: Several hydroxamates and salts thereof were analyzed in in vitro assays to determine their ability to inhibit the MMP cleavage of peptide substrates. Inhibition (Ki) and IC50 constants were calculated from the assayed hydroxamate-MMP interactions. […] The assays from which the IC50 determinations were made were performed as follows. […] The assayed hydroxamate samples were, incubated in Microfluorrm White Plates (Dynatech, Chantilly, VA) and analyzed on a Perkin Elmer L550 plate reader (Norwalk, Conn.). […]
propertyLabel: IC50 (nM)

Task: Any idea what its IC50 is? The compound is "O=C(NO)C1(S(=O)(=O)c2ccc(OCCCN(c3nc4ccccc4s3)c3nc4ccccc4s3)cc2)CCOCC1"
Output: 6110

Task: Any idea what its IC50 is? The compound is "O=C(CCCOc1ccc(S(=O)(=O)C2(C(=O)NO)CCOCC2)cc1)c1cccs1"
Output: 0.5

Task: Any idea what its IC50 is? The compound is "O=C(NO)C1(S(=O)(=O)c2ccc(OCCCCCc3ccc4ccccc4c3)cc2)CCOCC1"
Output: 1.4

a = COc1ccc(S(=O)(=O)C[C@@H](C)COc2ccc(S(=O)(=O)C3(C(=O)NO)CCOCC3)cc2)cc1
b = COc1cc2c(cc1OC)CN(CCCCOc1ccc(S(=O)(=O)C3(C(=O)NO)CCOCC3)cc1)C(C)C2 (stereo not shown)
Task: Return label of the item with the larger IC50. Candidates: a , b . Mark your answer with the label of the selected entry.
Output: b

====

As shown below, each of these compounds has a reported IC50 value.
Target: Human recombinant MMP-1 (Homo sapiens)
Construct: made in house; host or cells: MMP-1-transfected HT-1080 cells (spent media)
Sequence (P03956 100-469): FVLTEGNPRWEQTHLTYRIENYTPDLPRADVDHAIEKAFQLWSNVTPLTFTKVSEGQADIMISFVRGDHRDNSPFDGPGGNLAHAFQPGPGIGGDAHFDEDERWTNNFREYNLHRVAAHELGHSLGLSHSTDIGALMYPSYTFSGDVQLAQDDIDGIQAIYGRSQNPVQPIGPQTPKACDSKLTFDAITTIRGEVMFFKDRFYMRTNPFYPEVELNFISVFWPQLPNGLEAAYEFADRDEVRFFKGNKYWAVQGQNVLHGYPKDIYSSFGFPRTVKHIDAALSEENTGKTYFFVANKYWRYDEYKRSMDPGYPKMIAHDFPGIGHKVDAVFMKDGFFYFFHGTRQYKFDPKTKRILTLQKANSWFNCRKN
Experiment: In vitro MMP inhibition, IC50 determination (fluorogenic substrate I)
Format: biochemical
Details: value outside parentheses (Ki in parenthesis)

Task: Human recombinant MMP-1 (Homo sapiens) / IC50 / "O=C(NO)C1(S(=O)(=O)c2ccc(OCCCS(=O)(=O)N3CCc4ccccc4C3)cc2)CCOCC1" : value?
Output: 2.46 µM

Task: Human recombinant MMP-1 (Homo sapiens) / IC50 / "COc1ccc(CC(=O)CCCOc2ccc(S(=O)(=O)C3(C(=O)NO)CCOCC3)cc2)cc1" : value?
Output: 3.66 µM

Task: Human recombinant MMP-1 (Homo sapiens) / IC50 / "COc1ccc(-c2nnc(CCCCOc3ccc(S(=O)(=O)C4(C(=O)NO)CCOCC4)cc3)o2)cc1" : value?
Output: > 10 µM

Further cases:
Task: Human recombinant MMP-1 (Homo sapiens) / IC50 / "Cc1ccc(C(=O)NCCCOc2ccc(S(=O)(=O)C3(C(=O)NO)CCOCC3)cc2)c(C)c1" : value?
Output: > 10 µM

Task: Human recombinant MMP-1 (Homo sapiens) / IC50 / "O=C(NO)C1(S(=O)(=O)c2ccc(OCCCOc3ccc(F)cc3F)cc2)CCOCC1" : value?
Output: 3.32 µM

Task: Human recombinant MMP-1 (Homo sapiens) / IC50 / CCCC(C)C(=O)NCCCOc1ccc(S(=O)(=O)C2(C(=O)NO)CCOCC2)cc1 (stereo not drawn) : value?
Output: > 10 µM

Task: Human recombinant MMP-1 (Homo sapiens) / IC50 / "O=C(CCCOc1ccc(S(=O)(=O)C2(C(=O)NO)CCOCC2)cc1)c1cccc(-c2ccccc2)c1" : value?
Output: > 10 µM

Task: Human recombinant MMP-1 (Homo sapiens) / IC50 / "O=C(CCCCOc1ccc(S(=O)(=O)C2(C(=O)NO)CCOCC2)cc1)c1cccc(-c2ccccc2)c1" : value?
Output: > 10 µM

Task: Human recombinant MMP-1 (Homo sapiens) / IC50 / "O=C(NO)C1(S(=O)(=O)c2ccc(OCCCOc3cccc(C(F)(F)F)c3)cc2)CCN(C2CC2)CC1" : value?
Output: > 10 µM

====

Target: Human recombinant MMP-2 (Homo sapiens, UniProt P08253)
Construct: made in house; host or cells: MMP-2-transfected p2AHT2 cells
Sequence (P08253 110-660): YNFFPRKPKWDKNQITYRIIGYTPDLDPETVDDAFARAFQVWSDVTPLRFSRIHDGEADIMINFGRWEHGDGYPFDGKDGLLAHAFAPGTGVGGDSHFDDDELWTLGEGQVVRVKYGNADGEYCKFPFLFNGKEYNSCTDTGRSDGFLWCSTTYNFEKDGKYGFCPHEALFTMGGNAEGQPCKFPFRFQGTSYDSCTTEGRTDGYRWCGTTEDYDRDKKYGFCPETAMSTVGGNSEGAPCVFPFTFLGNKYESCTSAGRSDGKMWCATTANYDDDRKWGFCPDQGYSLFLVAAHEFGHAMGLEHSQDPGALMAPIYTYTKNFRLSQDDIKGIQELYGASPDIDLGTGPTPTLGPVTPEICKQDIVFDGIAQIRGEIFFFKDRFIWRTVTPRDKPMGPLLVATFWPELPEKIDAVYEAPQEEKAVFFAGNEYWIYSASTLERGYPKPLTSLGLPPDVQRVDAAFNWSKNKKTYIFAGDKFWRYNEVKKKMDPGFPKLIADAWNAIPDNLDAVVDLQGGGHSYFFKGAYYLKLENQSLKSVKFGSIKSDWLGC
Assay: In vitro MMP inhibition, IC50 determination (fluorogenic substrate I)
Format: biochemical
Conditions: value outside parentheses
propertyLabel: IC50 (nM)

a = O=C(NO)C1(S(=O)(=O)c2ccc(OCCOCc3cccnc3)cc2)CCOCC1 [Example 518]
b = CCN1CCC(C(=O)NO)(S(=O)(=O)c2ccc(OCCCSc3nc4ccccc4o3)cc2)CC1
Task: Hey, which is lower on measured IC50, a or b ? Mark your answer with the label of the selected entry.
Output: b
(b: 7.5 nM, a: 26.4 nM)

1 = COC(=O)c1cccc(OCCOc2ccc(S(=O)(=O)C3(C(=O)NO)CCOCC3)cc2)c1
2 = O=C(NO)C1(S(=O)(=O)c2ccc(OCCCn3nnc(-c4ccc(C(F)(F)F)cc4)n3)cc2)CCN(CC(F)(F)F)CC1
Task: Hey, which is lower on measured IC50, 1 or 2 ? Mark your answer with the label of the selected entry.
Output: 1
(1: 101 nM, 2: 316 nM)
